Taken from patent US9776995B2.

# Study target: Nav 1.7 (Homo sapiens (Human), UniProt Q15858)
# Sequence (Q15858 whole entry): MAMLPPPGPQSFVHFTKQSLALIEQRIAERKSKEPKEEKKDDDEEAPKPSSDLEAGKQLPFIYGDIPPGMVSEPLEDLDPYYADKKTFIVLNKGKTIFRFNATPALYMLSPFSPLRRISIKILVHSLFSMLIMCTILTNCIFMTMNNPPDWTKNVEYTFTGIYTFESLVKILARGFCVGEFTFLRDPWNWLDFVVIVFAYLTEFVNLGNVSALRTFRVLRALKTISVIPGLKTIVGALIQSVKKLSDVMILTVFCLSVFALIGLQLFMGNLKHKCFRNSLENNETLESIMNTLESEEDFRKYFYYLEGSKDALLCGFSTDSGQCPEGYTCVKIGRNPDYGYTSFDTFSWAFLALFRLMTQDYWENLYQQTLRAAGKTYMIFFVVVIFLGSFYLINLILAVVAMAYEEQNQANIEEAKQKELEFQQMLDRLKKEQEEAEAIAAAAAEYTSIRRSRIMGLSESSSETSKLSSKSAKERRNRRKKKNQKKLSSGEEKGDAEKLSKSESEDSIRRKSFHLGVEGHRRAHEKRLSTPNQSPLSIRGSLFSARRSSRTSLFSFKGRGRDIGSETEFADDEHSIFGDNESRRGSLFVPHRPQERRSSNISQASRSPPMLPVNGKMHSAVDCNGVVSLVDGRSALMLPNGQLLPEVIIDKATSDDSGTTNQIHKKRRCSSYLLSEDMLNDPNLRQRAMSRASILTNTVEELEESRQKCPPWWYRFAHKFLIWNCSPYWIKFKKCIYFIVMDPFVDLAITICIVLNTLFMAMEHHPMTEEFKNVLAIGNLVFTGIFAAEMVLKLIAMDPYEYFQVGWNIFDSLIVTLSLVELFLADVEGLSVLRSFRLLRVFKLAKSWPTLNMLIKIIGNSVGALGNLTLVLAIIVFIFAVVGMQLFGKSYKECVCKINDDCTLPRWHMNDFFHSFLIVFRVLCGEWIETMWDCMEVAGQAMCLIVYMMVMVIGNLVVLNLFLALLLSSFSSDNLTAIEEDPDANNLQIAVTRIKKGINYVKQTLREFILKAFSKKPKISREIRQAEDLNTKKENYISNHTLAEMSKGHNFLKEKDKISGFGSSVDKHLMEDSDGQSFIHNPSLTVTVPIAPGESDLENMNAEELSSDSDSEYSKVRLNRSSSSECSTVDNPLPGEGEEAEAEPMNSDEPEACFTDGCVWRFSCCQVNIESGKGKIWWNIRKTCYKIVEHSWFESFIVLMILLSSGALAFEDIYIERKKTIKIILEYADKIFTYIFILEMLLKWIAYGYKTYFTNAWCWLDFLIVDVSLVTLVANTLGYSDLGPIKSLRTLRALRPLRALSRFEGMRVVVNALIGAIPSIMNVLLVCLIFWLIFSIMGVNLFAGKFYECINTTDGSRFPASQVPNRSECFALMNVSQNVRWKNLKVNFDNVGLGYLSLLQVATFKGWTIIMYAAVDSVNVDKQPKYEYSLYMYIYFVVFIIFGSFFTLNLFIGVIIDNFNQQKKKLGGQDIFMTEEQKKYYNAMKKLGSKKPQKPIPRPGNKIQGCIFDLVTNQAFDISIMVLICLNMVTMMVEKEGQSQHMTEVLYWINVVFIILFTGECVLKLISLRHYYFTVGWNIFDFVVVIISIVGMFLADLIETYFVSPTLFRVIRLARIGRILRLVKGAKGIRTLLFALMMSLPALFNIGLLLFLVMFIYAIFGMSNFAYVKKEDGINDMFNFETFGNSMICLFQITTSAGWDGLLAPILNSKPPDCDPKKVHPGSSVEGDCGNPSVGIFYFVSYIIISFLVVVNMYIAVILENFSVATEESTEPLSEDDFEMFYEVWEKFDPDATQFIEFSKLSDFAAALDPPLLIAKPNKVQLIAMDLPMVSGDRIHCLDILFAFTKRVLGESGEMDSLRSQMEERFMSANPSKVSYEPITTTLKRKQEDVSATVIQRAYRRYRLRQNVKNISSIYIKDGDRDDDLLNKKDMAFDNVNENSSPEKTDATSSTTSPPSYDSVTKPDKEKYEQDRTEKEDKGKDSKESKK
# Protocol description: in-vitro Nav 1.7 PX data
# Format: cell-based
# Test settings: in-vitro PX data
pIC50: −log10 of the molar value.
Quick rule: pIC50 of at least 7 means true (1), below that means false (0).

Hello, I need to know if COc1cc(-c2cc(F)cc(F)c2)ccc1-c1nccc2cc(S(=O)(=O)Nc3nc(C)ns3)ccc12 [Example 130] has measured pIC50 not below 7. Thanks!
false (0)

Hello, I need to know if COc1cc(-c2cccc(F)c2)c(C#N)cc1-c1nccc2cc(S(=O)(=O)Nc3ncccn3)ccc12 [Example 109] has measured pIC50 not below 7. Thanks!
false (0)

Please tell me: is the compound COc1cc(-c2cccc(Cl)c2)c(C#N)cc1-c1nccc2cc(S(=O)(=O)Nc3ccon3)ccc12 [Example 111] at or over 7 in terms of pIC50?
true (1)

Quick check: does COc1cc(NS(=O)(=O)c2ccc3c(-c4ccc(-c5cc(F)cc(F)c5)cc4OC)nccc3c2)ncn1 [Example 125] have pIC50 greater than or equal to 7?
false (0)

Determine whether this compound has pIC50 no lower than 7: COc1nsc(NS(=O)(=O)c2ccc3c(-c4ccc(-c5cc(F)cc(F)c5)cc4OC)nccc3c2)n1 [Example 134]
false (0)

Threshold query (pIC50 >= 7) on COc1cc(-c2cc(F)cc(F)c2)ccc1-c1nccc2cc(S(=O)(=O)Nc3cccnn3)ccc12 [Example 138]
false (0)

Kindly determine if pIC50 recorded for COc1cc(-c2cccc(C(F)(F)F)c2)c(F)cc1-c1nccc2cc(S(=O)(=O)Nc3ccon3)ccc12 [Example 115] is above or exactly 7.
true (1)

Determine whether measured pIC50 meets or exceeds 7 for COc1cc(-c2cc(F)cc(F)c2)ccc1-c1nccc2cc(S(=O)(=O)Nc3ncccn3)ccc12 [Example 123]
false (0)

Check if pIC50 >= 7 (inclusive). Item: COc1cc(-c2cc(F)cc(F)c2)ccc1-c1nccc2cc(S(=O)(=O)Nc3cncc(C)n3)ccc12 [Example 131]
false (0)

Quick check, pIC50 >= 7? COc1cc(-c2cc(F)cc(F)c2)ccc1-c1nccc2cc(S(=O)(=O)Nc3cnsn3)ccc12 [Example 129]
false (0)

Is it the case that COc1cc(-c2cc(F)cc(F)c2)ccc1-c1nccc2cc(S(=O)(=O)Nc3ncc(C#N)s3)ccc12 [Example 132] has pIC50 reaching or exceeding 7?
false (0)

Say whether COc1cc(-c2cc(F)cc(F)c2)c(C#N)cc1-c1nccc2cc(S(=O)(=O)Nc3ncccn3)ccc12 [Example 107] shows pIC50 of 7 or more.
false (0)

Answer whether pIC50 of COc1cc(-c2cc(F)cc(F)c2)ccc1-c1nccc2cc(S(=O)(=O)NC(C)=O)ccc12 [Example 136] is greater than or equal to 7.
false (0)
